Origin of values: paper PMC9968170

experiment: PK of NOV (oral, given with FUR) in rats; format: in vivo, Sprague-Dawley rats; conditions: Sprague-Dawley, rat, urine and whole blood; female rats; NOV 20 mg/kg PO; read-out: NOV renal clearance (CLR) (converted)
TEST READOUT: CL renal (mL/min)
Lab book: enter the figure in mL/min, no units written.

Query :: Form field: reported CL renal of CO[C@@H]1[C@@H](OC(N)=O)[C@@H](O)[C@H](Oc2ccc3c(O)c(NC(=O)c4ccc(O)c(CC=C(C)C)c4)c(=O)oc3c2C)OC1(C)C
Result :: 0.00833
